# Test system: P388 mouse leukemia cells
# PARTICULARS: 92 h
Where a SMILES comes first, the peptide text is derived from it. [ ]: non-standard residue; d: D form. The star is where a group is joined. NHCH2CH2OH = OCCN*; For = O=C*
MEASUREMENT_KIND: cell viability/%

Short answer please: cell viability/%, P388 mouse leukemia cells, entry CC(C)C[C@@H](NC(=O)[C@H](Cc1c[nH]c2ccccc12)NC(=O)[C@H](NC(=O)[C@H](Cc1c[nH]c2ccccc12)NC(=O)[C@@H](CC(C)C)NC(=O)[C@H](Cc1c[nH]c2ccccc12)NC(=O)[C@@H](CC(C)C)NC(=O)[C@@H](NC(=O)[C@H](NC(=O)[C@H](C)NC(=O)[C@H](NC(=O)[C@H](C)NC(=O)CNC(=O)[C@@H](NC=O)C(C)C)C(C)C)C(C)C)C(C)C)[C@H](C)O)C(=O)N[C@@H](Cc1c[nH]c2ccccc12)C(=O)NCCO [compound 1251] (For-VGA[dV]A[dV]V[dL]W[dL]W[dT]W[dL]W-NHCH2CH2OH)
52.9%
